Tested on: 3D7
Assay: qHTS profiling for inhibitors of Plasmodium falciparum proliferation (AID 504749); also: nearly all actives have a fitted effect of over 60% in size; also: potency is read from the fitted curve at half-maximal effect
Conditions: P. falciparum in erythrocytes, SYBR Green DNA, 72 h; series mostly up to 12.8 µM
Records with an inconclusive call do not appear. The source made the active and inactive calls. Calls follow the shape of the dose curve; as a rule, active = well fitted inhibition curve with a large enough effect; inconclusive = small, poorly fitted or top-dose-only effect; inactive = flat fitted curve, though single readings scatter.
PARAMETER MEASURED: Potency

See these solved cases before continuing.
CCc1c(C)[nH]c2c1C(=O)[C@H](CN1CCOCC1)CC2
inactive
COc1ccc(CC(N)C(=O)NC2C(CO)OC(n3cnc4c(N(C)C)ncnc43)C2O)cc1 (configuration not stated)
1 µM (active)
CC1=C(C(=O)O)N2C(=O)[C@@H](NC(=O)[C@@H](N)c3ccc(O)cc3)[C@@H]2SC1
inactive
Cc1ncc([N+](=O)[O-])n1C[C@H](O)CCl
inactive
C[C@@H]1O[C@H](O[C@@H]2\C=C/C=C\C=C/C=C\C[C@H](C)OC(=O)/C=C\[C@H]3O[C@@H]3C[C@H](O)C[C@]3(O)C[C@@H](O)[C@@H](C(=O)O)[C@H](C2)O3)[C@@H](O)[C@H](N)[C@@H]1O (stereo in doubt)
inactive
CCC1OC(=O)C(C)[C@@H](O[C@H]2C[C@@](C)(OC)C(O)C(C)O2)C(C)[C@@H](O[C@@H]2OC(C)CC(N(C)C)C2O)[C@@](C)(O)CC(C)C(=O)[C@@H](C)C(O)[C@]1(C)O (some centres not stated)
inactive
NC(CCC(=O)N[C@@H](CS)C(=O)NCC(=O)O)C(=O)O (some centres not stated)
6.31 µM (active)
CN(C)CCCOC1C(C(O)CO)OC2OC(C)(C)O[C@@H]21 (some centres not stated)
inactive
CCOC(=O)Oc1c(OC)cc(C(=O)O[C@H]2C[C@H]3CN4CCc5c([nH]c6cc(OC)ccc56)[C@@H]4C[C@H]3[C@@H](C(=O)OC)[C@@H]2OC)cc1OC
3.16 µM (active)
Cc1cccc(C)c1NC(=O)[C@H](C)N
inactive

(Q) Please report Potency for the following compound: CCOC(=O)[C@H](CCc1ccccc1)N[C@@H](C)C(=O)N1[C@H](C(=O)O)C[C@H]2CCC[C@@H]21
(A) inactive

(Q) Provide only the value of recorded Potency for COc1ccc(C[C@@](C)(N)C(=O)O)cc1OC
(A) inactive
